Source of measurements: ChEMBL document CHEMBL5252514

# target.system: Kappa-type opioid receptor (Homo sapiens, UniProt P41145)
# Sequence (P41145 whole entry): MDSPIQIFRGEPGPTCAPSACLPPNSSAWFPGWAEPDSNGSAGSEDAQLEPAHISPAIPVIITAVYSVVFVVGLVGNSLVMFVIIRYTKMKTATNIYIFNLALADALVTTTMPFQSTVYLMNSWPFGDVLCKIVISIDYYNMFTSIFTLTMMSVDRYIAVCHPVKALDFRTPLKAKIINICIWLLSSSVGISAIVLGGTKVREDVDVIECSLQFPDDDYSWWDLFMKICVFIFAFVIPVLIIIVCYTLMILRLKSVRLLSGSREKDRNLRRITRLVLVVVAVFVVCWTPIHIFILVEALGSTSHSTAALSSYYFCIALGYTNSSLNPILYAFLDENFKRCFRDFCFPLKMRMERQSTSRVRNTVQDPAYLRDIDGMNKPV
# assay.notes: Agonist activity at human kappa opioid receptor expressed in CHO-K1 cells assessed as ERK phosphorylation incubated for 2 hrs by Alphascreen surefire method
# Type: cell-based
Where a SMILES comes first, the peptide text is derived from it.
recorded.metric: EC50
Numeric answer plus unit only.

compound: N=C(N)NCCC[C@@H](NC(=O)[C@@H](CCCNC(=N)N)NC(=O)[C@@H]1CCCN1C(=O)c1ccccc1)C(=O)N[C@@H](CCC(N)=O)C(=O)N[C@@H](CC1CCCCC1)C(=O)N[C@H]1CSSC[C@@H](C(N)=O)NC1=O
EC50: 0.36 nM

(Q) State the recorded EC50 for this entry: CC[C@H](C)[C@H](NC(=O)[C@H](CCC(N)=O)NC(=O)[C@H](CCCNC(=N)N)NC(=O)[C@H](CCCNC(=N)N)NC(=O)[C@@H]1CCC(=O)N1)C(=O)N[C@H]1CSSC[C@@H](C(N)=O)NC1=O (HELM PEPTIDE1{[Glp].R.R.Q.I.C.C.[am]}$PEPTIDE1,PEPTIDE1,6:R3-7:R3$$$V2.0)
(A) 7490 nM

(Q) Similarly, CC1(C)SSC[C@@H](C(N)=O)NC(=O)[C@H]1NC(=O)[C@H](CC1CCCCC1)NC(=O)[C@H](CCC(N)=O)NC(=O)[C@@H](CCCNC(=N)N)NC(=O)[C@@H](CCCNC(=N)N)NC(=O)[C@@H]1CCC(=O)N1 ?
(A) 450 nM

(Q) Now this one: N=C(N)NCCC[C@@H](NC(=O)[C@@H](CCCNC(=N)N)NC(=O)[C@@H]1CCCN1C(=O)c1ccccc1)C(=O)N[C@@H](CCC(N)=O)C(=O)N[C@H](C(=O)N[C@H]1CSSC[C@@H](C(N)=O)NC1=O)C1CCCCC1
(A) 0.62 nM

(Q) N=C(N)NCCC[C@@H](NC(=O)[C@@H]1CCC(=O)N1)C(=O)N[C@H](CCCNC(=N)N)C(=O)N[C@@H](CCC(N)=O)C(=O)N[C@@H](CC1CCCCC1)C(=O)N[C@H]1CSSC[C@@H](C(N)=O)NC1=O , same question.
(A) 1100 nM

(Q) Then CC[C@H](C)[C@H](NC(=O)[C@H](CCC(N)=O)NC(=O)[C@H](CCCNC(=N)N)NC(=O)[C@H](CCCNC(=N)N)NC(=O)[C@@H]1CSSC[C@H](NC(=O)[C@@H](N)CC(N)=O)C(=O)N1)C(=O)N[C@H]1CSSC[C@@H](C(N)=O)NC1=O (HELM PEPTIDE1{N.C.C.R.R.Q.I.C.C.[am]}$PEPTIDE1,PEPTIDE1,2:R3-3:R3|PEPTIDE1,PEPTIDE1,8:R3-9:R3$$$V2.0) ?
(A) 9850 nM

(Q) Now this one: N=C(N)NCCC[C@H](NC(=O)[C@@H]1CCC(=O)N1)C(=O)N[C@@H](CCCNC(=N)N)C(=O)N[C@@H](CCC(N)=O)C(=O)N[C@@H](CC1CCCCC1)C(=O)N[C@H]1CSSC[C@@H](C(N)=O)NC1=O
(A) 1580 nM

(Q) Same question for CC[C@H](C)[C@H](NC(=O)[C@H](CCC(N)=O)NC(=O)[C@H](CCCNC(=N)N)NC(=O)[C@H](CCCNC(=N)N)NC(=O)[C@@H]1CSSC[C@H](NC(=O)[C@@H]2CCC(=O)N2)C(=O)N1)C(=O)N[C@H]1CSSC[C@@H](C(N)=O)NC1=O (HELM PEPTIDE1{[Glp].C.C.R.R.Q.I.C.C.[am]}$PEPTIDE1,PEPTIDE1,2:R3-3:R3|PEPTIDE1,PEPTIDE1,8:R3-9:R3$$$V2.0) please.
(A) 5860 nM

###

# assay.notes: Metabolic stability in Wistar rat plasma assessed as half life by HPLC analysis
# Type: ADME, cell-free
Where a SMILES comes first, the peptide text is derived from it.
recorded.metric: half-life (min)
# unit: min | format: bare number

In the examples that follow, each entry is paired with its recorded half-life.
molecule: N=C(N)NCCC[C@@H](NC(=O)[C@H]1NCCc2ccccc21)C(=O)N[C@H](CCCNC(=N)N)C(=O)N[C@@H](CCC(N)=O)C(=O)N[C@@H](CC1CCCCC1)C(=O)N[C@H]1CSSC[C@@H](C(N)=O)NC1=O
readout.value: 45
//
molecule: N=C(N)NCCC[C@H](NC(=O)[C@@H](CCCNC(=N)N)NC(=O)[C@@H]1CCC(=O)N1)C(=O)N[C@@H](CCC(N)=O)C(=O)N[C@@H](CC1CCCCC1)C(=O)N[C@H]1CSSC[C@@H](C(N)=O)NC1=O
readout.value: 90
//
molecule: N=C(N)NCCC[C@H](NC(=O)[C@@H]1CCC(=O)N1)C(=O)N[C@H](CCCNC(=N)N)C(=O)N[C@@H](CCC(N)=O)C(=O)N[C@@H](CC1CCCCC1)C(=O)N[C@H]1CSSC[C@@H](C(N)=O)NC1=O
readout.value: 1200

(Q) Any idea what half-life was measured for N=C(N)NCCC[C@@H](NC(=O)[C@@H](CCCNC(=N)N)NC(=O)[C@@H]1CCCN1C(=O)c1ccc2ccccc2c1)C(=O)N[C@@H](CCC(N)=O)C(=O)N[C@@H](CC1CCCCC1)C(=O)N[C@H]1CSSC[C@@H](C(=O)O)NC1=O ?
(A) 30

(Q) Subsequent entry: CC[C@H](C)[C@H](NC(=O)[C@H](CCC(N)=O)NC(=O)[C@H](CCCNC(=N)N)NC(=O)[C@H](CCCNC(=N)N)NC(=O)[C@@H]1CCC(=O)N1)C(=O)N[C@H]1CSSC[C@@H](C(N)=O)NC1=O (HELM PEPTIDE1{[Glp].R.R.Q.I.C.C.[am]}$PEPTIDE1,PEPTIDE1,6:R3-7:R3$$$V2.0)
(A) 180

###

# target.system: Kappa-type opioid receptor (Homo sapiens)
# assay.notes: Agonist activity at human kappa opioid receptor expressed in CHO-K1 cells assessed as inhibition of forskolin-stimulated cAMP production incubated for 30 mins by LANCE cAMP assay
# Type: cell-based
Where a SMILES comes first, the peptide text is derived from it.
recorded.metric: pEC50
# pEC50 = -log10(concentration in molar units)

// worked examples, pEC50 included
compound: N=C(N)NCCC[C@@H](NC(=O)[C@@H](CCCNC(=N)N)NC(=O)[C@@H]1CCCN1C(=O)c1ccccc1)C(=O)N[C@@H](CCC(N)=O)C(=O)N[C@@H](CC1CCCCC1)C(=O)N[C@H]1CSSC[C@@H](C(N)=O)NC1=O
pEC50: 9.39
//
compound: CC[C@H](C)[C@H](NC(=O)[C@H](CCC(N)=O)NC(=O)[C@H](CCCNC(=N)N)NC(=O)[C@H](CCCNC(=N)N)NC(=O)[C@@H]1CSSC[C@H](NC(=O)[C@@H]2CCC(=O)N2)C(=O)N1)C(=O)N[C@H]1CSSC[C@@H](C(N)=O)NC1=O (HELM PEPTIDE1{[Glp].C.C.R.R.Q.I.C.C.[am]}$PEPTIDE1,PEPTIDE1,2:R3-3:R3|PEPTIDE1,PEPTIDE1,8:R3-9:R3$$$V2.0)
pEC50: 7.94

(Q) # lookup: pEC50 of CC1(C)SSC[C@@H](C(N)=O)NC(=O)[C@H]1NC(=O)[C@H](CC1CCCCC1)NC(=O)[C@H](CCC(N)=O)NC(=O)[C@@H](CCCNC(=N)N)NC(=O)[C@@H](CCCNC(=N)N)NC(=O)[C@@H]1CCC(=O)N1
(A) 7.98

(Q) Same for N=C(N)NCCC[C@@H](NC(=O)[C@@H]1CCC(=O)N1)C(=O)N[C@H](CCCNC(=N)N)C(=O)N[C@@H](CCC(N)=O)C(=O)N[C@@H](CC1CCCCC1)C(=O)N[C@H]1CSSC[C@@H](C(N)=O)NC1=O
(A) 7.90

###

# Organism: Homo sapiens
# assay.notes: Selectivity ratio, ratio of Ki for human KOR to Ki for human MOR
Where a SMILES comes first, the peptide text is derived from it.
recorded.metric: Ratio Ki

molecule: N=C(N)NCCC[C@H](NC(=O)[C@@H]1CCC(=O)N1)C(=O)N[C@@H](CCCNC(=N)N)C(=O)N[C@@H](CCC(N)=O)C(=O)N[C@@H](CC1CCCCC1)C(=O)N[C@H]1CSSC[C@@H](C(N)=O)NC1=O
Ratio Ki: > 10000

In the following, a different molecule is considered.
(Q) What Ratio Ki value was documented for this molecule, CC[C@H](C)[C@H](NC(=O)[C@H](CCC(N)=O)NC(=O)[C@H](CCCNC(=N)N)NC(=O)[C@H](CCCNC(=N)N)NC(=O)[C@@H]1CCC(=O)N1)C(=O)N[C@H]1CSSC[C@@H](C(N)=O)NC1=O (HELM PEPTIDE1{[Glp].R.R.Q.I.C.C.[am]}$PEPTIDE1,PEPTIDE1,6:R3-7:R3$$$V2.0) ?
(A) > 250
